Cited source: paper PMC10005104

# test_target: hMAO B (Homo sapiens, UniProt P27338)
# Construct: purchased Sigma-Aldrich (Steinheim, Germany)
# Sequence (P27338 1-520): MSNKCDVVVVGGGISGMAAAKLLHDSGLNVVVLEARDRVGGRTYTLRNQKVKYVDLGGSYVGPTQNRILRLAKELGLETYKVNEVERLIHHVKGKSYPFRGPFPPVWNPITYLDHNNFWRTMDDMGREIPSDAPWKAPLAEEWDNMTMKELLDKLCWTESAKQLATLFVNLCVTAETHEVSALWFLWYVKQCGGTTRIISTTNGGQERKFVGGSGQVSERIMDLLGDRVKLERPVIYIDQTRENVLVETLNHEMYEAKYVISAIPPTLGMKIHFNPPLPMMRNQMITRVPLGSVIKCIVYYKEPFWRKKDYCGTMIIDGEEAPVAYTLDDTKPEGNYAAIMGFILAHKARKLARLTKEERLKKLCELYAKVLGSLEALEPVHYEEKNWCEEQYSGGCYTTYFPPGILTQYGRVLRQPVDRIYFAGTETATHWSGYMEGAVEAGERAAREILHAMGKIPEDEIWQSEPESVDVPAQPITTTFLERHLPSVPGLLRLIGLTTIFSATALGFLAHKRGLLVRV
# protocol: fluorometric Amplex red MAO assay
# Format: biochemical
# condition_parameters: at 1 µM; two independent experiments; read-out: hMAO B % inh
// inhibition at 1 µM lookup, one value per entry
In your response, put the unit directly after the numeric value.

Observe how each entry below is paired with its result.
[
  {
    "compound": "CCC(=O)c1ccc(OCCCCCN2CCC(C)CC2)cc1",
    "inhibition at 1 µM": "0%"
  },
  {
    "compound": "CCC(=O)c1ccc(OCCCCCN2CCCCC2)cc1",
    "inhibition at 1 µM": "16%"
  },
  {
    "compound": "CCC(=O)c1ccc(OCCCCCCN2CCCCCC2)cc1.O=C(O)C(=O)O",
    "inhibition at 1 µM": "5%"
  },
  {
    "compound": "CCC(=O)c1ccc(OCCCCCN2CCCCCC2)cc1.O=C(O)C(=O)O",
    "inhibition at 1 µM": "6%"
  },
  {
    "compound": "CC(=O)c1ccc(OCCCCCCN2CCCCCC2)cc1",
    "inhibition at 1 µM": "6%"
  }
]

In: Which inhibition at 1 µM is reported for this compound? CCC(=O)c1ccc(OCCCCCCN2CCC(C)CC2)cc1.O=C(O)C(=O)O
Out: 1%

In: Which inhibition at 1 µM is reported for this compound? CC(=O)c1ccc(OCCCCCN2CCCC(C)C2)cc1 (stereo not shown)
Out: 10%
